pIC50: recorded values
- Test system: DU-145
- ASSAY_PROCEDURE: Cytotoxicity against human DU145 cells assessed as growth inhibition after 48 hrs by SRB assay
- Format: functional, cell-based
- TEST_PARAMETERS: DU-145, 48 h
pIC50: −log10 of the molar value.

STRUCTURE_STRING: COc1cc([C@@H]2c3cc4c(cc3[C@@H](n3cc(COc5ccc(C(=O)/C=C/c6cccc(F)c6)cc5)nn3)[C@H]3COC(=O)[C@H]23)OCO4)cc(OC)c1O
pIC50: 5.13
--
STRUCTURE_STRING: COc1cc([C@@H]2c3cc4c(cc3[C@@H](n3cc(COc5ccc(C(C)=O)cc5)nn3)[C@H]3COC(=O)[C@H]23)OCO4)cc(OC)c1OC
pIC50: 4.87
--
STRUCTURE_STRING: COc1cc([C@@H]2c3cc4c(cc3[C@@H](n3cc(COc5ccc(C(=O)/C=C/c6cccc(C)c6)cc5)nn3)[C@H]3COC(=O)[C@H]23)OCO4)cc(OC)c1O
pIC50: 4.69
--
STRUCTURE_STRING: COc1cc([C@@H]2c3cc4c(cc3[C@@H](n3cc(COc5ccc(C(=O)/C=C/c6cccc(C)c6)cc5)nn3)[C@H]3COC(=O)[C@H]23)OCO4)cc(OC)c1OC
pIC50: 5.03
--
STRUCTURE_STRING: COc1cc([C@@H]2c3cc4c(cc3[C@@H](n3cc(COc5ccc(C(C)=O)cc5)nn3)[C@H]3COC(=O)[C@H]23)OCO4)cc(OC)c1O
pIC50: 4.78
--
STRUCTURE_STRING: COc1cc([C@@H]2c3cc4c(cc3[C@@H](n3cc(COc5ccc(C(=O)/C=C/c6ccccc6F)cc5)nn3)[C@H]3COC(=O)[C@H]23)OCO4)cc(OC)c1O
pIC50: 5.03

====

- System: SK-N-SH
- ASSAY_PROCEDURE: Cytotoxicity against human SK-N-SH cells assessed as growth inhibition after 48 hrs by SRB assay
- Type: functional, cell-based
We'd kindly ask you to apply these IC50 classes: zone 1 = under 7 µM, zone 2 = from 7 µM up to 10 µM, zone 3 = 10 µM and over

STRUCTURE_STRING: COc1cc([C@@H]2c3cc4c(cc3[C@@H](n3cc(COc5ccc(/C=C/C(C)=O)cc5)nn3)[C@H]3COC(=O)[C@H]23)OCO4)cc(OC)c1O
CATEGORY: zone 3
--
STRUCTURE_STRING: COc1cc([C@@H]2c3cc4c(cc3[C@@H](n3cc(COc5ccc(C(=O)/C=C/c6ccccc6)cc5)nn3)[C@H]3COC(=O)[C@H]23)OCO4)cc(OC)c1O
CATEGORY: zone 1
--
STRUCTURE_STRING: COc1cc([C@@H]2c3cc4c(cc3[C@@H](n3cc(COc5ccc(/C=C/C(C)=O)cc5)nn3)[C@H]3COC(=O)[C@H]23)OCO4)cc(OC)c1OC
CATEGORY: zone 3
--
STRUCTURE_STRING: COc1cc([C@@H]2c3cc4c(cc3[C@@H](n3cc(COc5ccc(C(=O)/C=C/c6ccc(F)cc6)cc5)nn3)[C@H]3COC(=O)[C@H]23)OCO4)cc(OC)c1OC
CATEGORY: zone 1
--
STRUCTURE_STRING: COc1cc([C@@H]2c3cc4c(cc3[C@@H](n3cc(COc5ccc(C(=O)/C=C/c6ccccc6F)cc5)nn3)[C@H]3COC(=O)[C@H]23)OCO4)cc(OC)c1OC
CATEGORY: zone 1
--
STRUCTURE_STRING: COc1ccc(/C=C/C(=O)c2ccc(OCc3cn([C@@H]4c5cc6c(cc5[C@@H](c5cc(OC)c(OC)c(OC)c5)[C@H]5C(=O)OC[C@@H]54)OCO6)nn3)cc2)cc1
CATEGORY: zone 2
--
STRUCTURE_STRING: COc1ccc(/C=C/C(=O)c2ccc(OCc3cn([C@@H]4c5cc6c(cc5[C@@H](c5cc(OC)c(O)c(OC)c5)[C@H]5C(=O)OC[C@@H]54)OCO6)nn3)cc2)cc1
CATEGORY: zone 3
--
STRUCTURE_STRING: COc1cc(/C=C/C(C)=O)ccc1OCc1cn([C@@H]2c3cc4c(cc3[C@@H](c3cc(OC)c(O)c(OC)c3)[C@H]3C(=O)OC[C@@H]32)OCO4)nn1
CATEGORY: zone 1
--
STRUCTURE_STRING: COc1cc([C@@H]2c3cc4c(cc3[C@@H](n3cc(COc5ccc(/C=C/C(=O)c6ccccc6)cc5)nn3)[C@H]3COC(=O)[C@H]23)OCO4)cc(OC)c1O
CATEGORY: zone 2
